Reported values of GI50 for individual entries
System: SNB-75
assayNotes: NCI tumour cell line growth inhibition, 48 h
Active and inactive are the calls of the source. No stated cut-off is given here; in the data, active = GI50 up to about 1.1 µM and inactive = higher.
attributeMeasured: GI50

| molecule | experimentalValue |
| --- | --- |
| CCN(CC)c1ccc2c(c1)OC(=O)C(c1nnc(-c3ccc([N+](=O)[O-])cc3)o1)C2 (configuration not stated) | > 100 µM (inactive) |
| On1c(-c2ccccc2)nc2ccccc2c1=S | 19.3 µM (inactive) |
| C/C(=N\N=C(N)N)c1sc(-c2nc(C)c(/C(C)=N/N=C(N)N)s2)nc1C | > 84.3 µM (inactive) |
| CC[C@@H](/C=C\CCC1(C[C@@H](N)CCC=C(C)C)OCCO1)O[Si](C(C)C)(C(C)C)C(C)C | 18.9 µM (inactive) |
| CC(=O)OCC1OC(N2C(=O)/C(=C\c3ccc(Cl)cc3)C(N)=Nc3ccccc32)C(OC(C)=O)C(OC(C)=O)C1OC(C)=O (configuration not stated) | 19.1 µM (inactive) |
| COc1ccc(-c2onc(-c3c(C)cc(C)cc3C)c2C2=NCCN2)cc1 | 84.9 µM (inactive) |
| Cc1cc(C)nc(NS(=O)(=O)c2ccc(NC(=O)c3cccc4c(NNc5ccc(S(=O)(=O)N=C(N)N)cc5)c5ccccc5nc34)cc2)n1 | 41.9 µM (inactive) |
| CC1=C(Cl)C=CP(=O)(OC(C)C)C1 (configuration not stated) | 0.39 µM (active) |
| CN1CCN(CC(=O)N2c3ccccc3Sc3cc4ccccc4cc32)CC1 | 14.5 µM (inactive) |
| Cc1coc2c1C(=O)C(=O)c1ccccc1-2 | 1.72 µM (inactive) |
| COc1cccc2c1C1(O)C2CCCCCCCCCC12OCCCO2 (configuration not stated) | > 44.1 µM (inactive) |
| COC(=O)C1=C(O)C(C(=O)OC)[C@@]2(O)[C@@H](C(=O)OC)[C@H](C)[C@@H](C)[C@@H]1[C@@H]2C(=O)OC (some centres not stated) | 57.7 µM (inactive) |
